B1: Hairpin Ribozyme (parent)
chain: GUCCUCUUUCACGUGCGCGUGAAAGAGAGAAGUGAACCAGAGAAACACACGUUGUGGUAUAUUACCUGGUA

Variants of: B1
EXPERIMENT_NOTES: self-cleavage, relative activity (ratio to wild type); higher = more cleavage; co-transcriptional
MEASURED_PARAMETER: self-cleavage
I'd appreciate a reply containing only the number, no unit.

Solved cases below.
variant_notation="A45C G68C" readout_value=0.119
variant_notation="A28U C66U" readout_value=0.207
variant_notation="U2C A24G" readout_value=0.154
variant_notation="C12A A24U" readout_value=0.584
variant_notation="C16U A24G" readout_value=0.997

[in] Return the recorded self-cleavage value; entry: C16A A43U
[out] 0.0656

[in] Determine its reported self-cleavage: U2C U33C
[out] 0.223

[in] Name the recorded self-cleavage of the item G51U U63C in your answer.
[out] 0.136

[in] Read the entry C12G A45C and write its reported self-cleavage.
[out] 0.0684

[in] In one line, give reported self-cleavage of the entry U8G A41C .
[out] 0.801

[in] Read off the recorded self-cleavage for A59U G68A
[out] 0.231
